- Experimental system: CXCR4 (Homo sapiens)
- Construct: full-length receptor overexpressed in U87.CD4.CXCR4 glioma cells
- Sequence (P61073 whole entry): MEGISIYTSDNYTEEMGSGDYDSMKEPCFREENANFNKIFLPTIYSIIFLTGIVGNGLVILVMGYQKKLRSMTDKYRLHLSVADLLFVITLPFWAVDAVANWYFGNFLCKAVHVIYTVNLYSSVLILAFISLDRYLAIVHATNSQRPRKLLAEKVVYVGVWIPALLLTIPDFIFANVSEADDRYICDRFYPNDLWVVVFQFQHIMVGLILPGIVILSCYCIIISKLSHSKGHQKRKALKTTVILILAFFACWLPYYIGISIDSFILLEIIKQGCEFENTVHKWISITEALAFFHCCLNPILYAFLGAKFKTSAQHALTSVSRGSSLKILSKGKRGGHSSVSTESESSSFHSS
- Method description: […]SDF-1 (CXCL12) displacement on U87.CD4.CXCR4 cells
Answer each item with its documented pIC50.
pIC50 here: minus log base 10 of the concentration, concentration in moles per litre.

Quick one: pIC50 for c1ccc(CNCc2ccc(CN3CCCNCCNCCCNCC3)cc2)nc1 [AMD3465] ?
7.05

Further, for Fc1ccc(CNCCNCc2ccc(CN3CCCNCCNCCCNCC3)cc2)cc1 [compound 5] ?
6.95
